assayProtocol: Selectivity index, ratio of CC50 for human MT4 cells to EC50 for HIV1 cells
Format: toxicity, cell-based
experimentalParameters: read-out: Selectivity Index
resultType: selectivity ratio
No unit in the answer, please; the number alone is enough.

Data point: `CCOC(=O)/C(O)=C/C(=O)c1cn(Cc2ccc(Cl)cc2)c2cccc(OC)c12` ; selectivity ratio = 1

Record `COc1cccc2c1c(C(=O)/C=C(\O)C(=O)O)cn2Cc1ccc(F)c(Cl)c1` , field selectivity ratio: 74

Lookup result for `CCOC(=O)/C(O)=C/C(=O)c1cn(Cc2ccccc2Cl)c2cccc(OC)c12` ; measured selectivity ratio: 14

Looking up `COc1cccc2c1c(C(=O)/C=C(\O)C(=O)O)cn2Cc1ccc(F)cc1` , I see its selectivity ratio listed as 70

Reported selectivity ratio for `COc1cccc2c1c(C(=O)/C=C(\O)C(=O)O)cn2Cc1cccc(Cl)c1F` was 35

Value of measured selectivity ratio for the entry `CCOC(=O)/C(O)=C/C(=O)c1cn(Cc2cc(F)ccc2Cl)c2cccc(OC)c12` : 3

Measured selectivity ratio, `COc1cccc2c1c(C(=O)/C=C(\O)C(=O)O)cn2Cc1cc(Cl)ccc1F` : 3

The recorded selectivity ratio for entry `COc1cccc2c1c(C(=O)/C=C(\O)C(=O)O)cn2Cc1ccc(Cl)cc1` equals 2

Recorded result, `COc1cccc2c1c(C(=O)/C=C(\O)C(=O)O)cn2Cc1cccc(F)c1Cl` , selectivity ratio: 18

get_value(item= `COc1cccc2c1c(C(=O)/C=C(\O)C(=O)O)cn2Cc1cc(F)cc(Cl)c1` , readout=selectivity ratio) returns 62

For record `CCOC(=O)/C(O)=C/C(=O)c1cn(Cc2ccc(F)c(Cl)c2)c2cccc(OC)c12` the listed selectivity ratio is 26

* * *

assayedTarget: Human immunodeficiency virus type 1 integrase (Human immunodeficiency virus 1, UniProt Q7ZJM1)
Sequence (Q7ZJM1 whole entry): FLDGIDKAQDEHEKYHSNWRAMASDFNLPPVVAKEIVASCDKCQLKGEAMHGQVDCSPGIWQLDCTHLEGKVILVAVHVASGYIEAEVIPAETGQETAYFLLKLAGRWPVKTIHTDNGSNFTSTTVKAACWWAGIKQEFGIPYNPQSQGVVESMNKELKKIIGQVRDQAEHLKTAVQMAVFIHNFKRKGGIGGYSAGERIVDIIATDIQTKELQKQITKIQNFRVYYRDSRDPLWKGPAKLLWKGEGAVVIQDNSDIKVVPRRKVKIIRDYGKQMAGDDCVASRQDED
For each of the compounds below, state its IC50.
Write the number in nM without appending the unit.

Recorded IC50 (compound `CCOC(=O)/C(O)=C/C(=O)c1cn(Cc2cc(F)ccc2Cl)c2cccc(OC)c12` ): 2940

// IC50 lookup, compound = `CCOC(=O)/C(O)=C/C(=O)c1cn(Cc2ccccc2Cl)c2cccc(OC)c12` , result: 730

Per the records, this compound ( `CCOC(=O)/C(O)=C/C(=O)c1cn(Cc2ccc(Cl)c(F)c2)c2cccc(OC)c12` ) has IC50 equal to 20400

Kindly note the recorded IC50 for `COc1cccc2c1c(C(=O)/C=C(\O)C(=O)O)cn2Cc1ccc(Cl)cc1F` , which is 5520

// IC50 value for `CCOC(=O)/C(O)=C/C(=O)c1cn(Cc2cccc(Cl)c2F)c2cccc(OC)c12` : 740

The value of IC50 measured for the compound `CCOC(=O)/C(O)=C/C(=O)c1cn(Cc2ccc(F)cc2Cl)c2cccc(OC)c12` turned out to be 2560

Reported IC50 ( `CCOC(=O)/C(O)=C/C(=O)c1cn(Cc2ccc(Cl)cc2F)c2cccc(OC)c12` ) = 3320

Looking up `COc1cccc2c1c(C(=O)/C=C(\O)C(=O)O)cn2Cc1cc(F)cc(Cl)c1` , I see its IC50 listed as 250

So, `COc1cccc2c1c(C(=O)/C=C(\O)C(=O)O)cn2Cc1cc(F)ccc1Cl` ? Its IC50 was 270

Reported IC50 ( `COc1cccc2c1c(C(=O)/C=C(\O)C(=O)O)cn2Cc1ccc(F)c(Cl)c1` ) = 120

Lab book: IC50 of `CCOC(=O)/C(O)=C/C(=O)c1cn(Cc2cccc(F)c2Cl)c2cccc(OC)c12` noted as 9200

# IC50 (compound: `COc1cccc2c1c(C(=O)/C=C(\O)C(=O)O)cn2Cc1cccc(F)c1Cl` ) is 12700

Consider `CCOC(=O)/C(O)=C/C(=O)c1cn(Cc2cccc(Cl)c2)c2cccc(OC)c12` . Its measured IC50 is 2890

response.value for `COc1cccc2c1c(C(=O)/C=C(\O)C(=O)O)cn2Cc1ccccc1Cl` (field: IC50) = 520

The reported value for `COc1cccc2c1c(C(=O)/C=C(\O)C(=O)O)cn2Cc1cc(Cl)ccc1F` in terms of IC50 is 90

Item: `CCOC(=O)/C(O)=C/C(=O)c1cn(Cc2c(F)cccc2Cl)c2cccc(OC)c12` | IC50: 1200

Form field IC50, entry `CCOC(=O)/C(O)=C/C(=O)c1cn(Cc2ccc(F)c(Cl)c2)c2cccc(OC)c12` : 70

Record `COc1cccc2c1c(C(=O)/C=C(\O)C(=O)O)cn2Cc1ccc(Cl)cc1` . Reported IC50: 590

Looking up `COc1cccc2c1c(C(=O)/C=C(\O)C(=O)O)cn2Cc1ccc(Cl)c(F)c1` , I found its IC50 recorded as 4580

get_value(item= `COc1cccc2c1c(C(=O)/C=C(\O)C(=O)O)cn2Cc1c(F)cccc1Cl` , readout=IC50) returns 130

Field IC50 (entry `CCOC(=O)/C(O)=C/C(=O)c1cn(Cc2ccc(Cl)cc2)c2cccc(OC)c12` ) reads 8260

Short answer for `COc1cccc2c1c(C(=O)/C=C(\O)C(=O)O)cn2Cc1ccc(F)cc1Cl` : IC50 was 60

For reference, reported IC50 for `COc1cccc2c1c(C(=O)/C=C(\O)C(=O)O)cn2Cc1cccc(Cl)c1F` stands at 30

Per the record, `COc1cccc2c1c(C(=O)/C=C(\O)C(=O)O)cn2Cc1cccc(Cl)c1` has IC50 of 30

Looking up `CCOC(=O)/C(O)=C/C(=O)c1cn(Cc2cc(Cl)ccc2F)c2cccc(OC)c12` , I see its IC50 listed as 890

Lab note: measured IC50 of `CCOC(=O)/C(O)=C/C(=O)c1cn(Cc2cc(F)cc(Cl)c2)c2cccc(OC)c12` was 3170
